Please respond with reported parasite growth for every item in the list.
Test system: Toxoplasma gondii RH (in HFF)
assay_explanation: parasite growth relative to the screen mean (all compounds = 100%); higher = less inhibition of parasite growth
condition_info: 5 µM; 72 h; oxygen 21 %
Where a name gives a salt, the structure may show the parent alone.
Your answer is read as %, so omit the unit and give the number.

Q. parasite growth lookup needed for "CCCn1c(=O)[nH]c2nc(-c3ccc(S(=O)(=O)O)cc3)[nH]c2c1=O" , thanks.
A. 112

Q. Same question for CNCC[C@@H](Oc1ccccc1C)c1ccccc1 [Tomoxetine hydrochloride] please.
A. 85.9

Q. For OCc1cc(C(O)CNCCCCCCOCCCCc2ccccc2)ccc1O (centres undefined) [Salmeterol] then?
A. 14.4

Q. Next compound: CN(C)c1nc(N)c(C(=O)Nc2cccnc2)nc1Cl [ACDPP hydrochloride]
A. 88.7

Q. Also need "COc1cc2ncn(-c3cc(OCc4ccccc4C(F)(F)F)c(C(N)=O)s3)c2cc1OC" , thanks.
A. 93.1

Q. "COc1ccc(S(=O)(=O)N2c3ccc(Cl)cc3[C@](O)(c3ccccc3Cl)[C@@H]2C(=O)N2CCC[C@H]2C(N)=O)cc1OC" , same question.
A. 144

Q. Another: COCCNC(=O)COc1ccc(OCCNC[C@H](O)COc2ccccc2)cc1 [ZD 7114 hydrochloride]
A. 123

Q. Can you check "N#C/C(=C\c1ccc(O)c(O)c1)C(=O)Nc1ccccc1" next?
A. 141

Q. Field entry: "CC(C)(C)c1ccc(/C=C/C(=O)Nc2ccc3c(c2)OCCO3)cc1"
A. 133
